Let's look at some variants and their measured self-cleavage.
B1: CPEB3 Ribozyme (parent)
chain: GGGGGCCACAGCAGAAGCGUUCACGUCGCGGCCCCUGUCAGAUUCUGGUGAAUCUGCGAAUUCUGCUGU

Variants of: B1
test_details: self-cleavage, relative activity (ratio to wild type); higher = more cleavage; co-transcriptional
metric_name: self-cleavage

INSERT INTO results (sequence_variant, reported) VALUES
  ('G48U G56A', 0.945),
  ('G2C U26C', 0.0734),
  ('G30C U49G', 0.564),
  ('G25C U62A', 0.132),
  ('A15G U62A', 0.906),
  ('C18U A51U', 0.851),
  ('C6U C66U', 0.991),
  ('C34A U69A', 0.971),
  ('G3C A10C', 0.175),
  ('G31U C32U', 0.32),
  ('C39A A52C', 0.67),
  ('G5U C9A', 0.716),
  ('G19U G25A', 0.177),
  ('A15U C63A', 0.832),
  ('A15C C24A', 0.273),
  ('A40G G48U', 0.969),
  ('U43A U53G', 0.773),
  ('U49G A60U', 0.432);

Every entry's value here was drawn from the RNAGym collection of RNA variant scans (doi:10.7554/elife.80360).
